Hello, the source for this data is patent US20180111913A1, in case you need it.

Field: MIC. Provide a value for each of the compounds that follow.
# Tested on: Mtb strain mc^27000
# TEST_NAME: microbe, parasite or virus in culture
# Format: cell-based, Mycobacterium tuberculosis
# MEASUREMENT_CONTEXT: Mycobacterium tuberculosis, Mtb mc^27000, liquid medium, 96-well plates; read-out: MIC

stdin: Give its MIC value. Item: `CC(=O)NCCNC(=O)c1c(-c2ccccc2)oc2ccc(O)c(CN3CCCCC3)c12`
stdout: > 40 µM

stdin: Give its MIC value. Item: `CNC(=O)c1c(-c2ccccc2)oc2cccc(CN3CCCCC3)c12`
stdout: > 50 µM

stdin: Give its MIC value. Item: CCOC(=O)c1c(-c2ccccc2)oc2ccc(O)c(CCN3CCCC3C(=O)O)c12 (stereo not shown)
stdout: 20 to 40 µM

stdin: Give its MIC value. Item: `CNC(=O)c1c(-c2ccc(O)cc2)oc2ccc(O)c(CN3CCC(C(N)=O)CC3)c12`
stdout: > 40 µM

---

# TARGET_OR_TEST_SYSTEM: Mtb Pks13-TE domain (wild-type) (Mycobacterium tuberculosis, UniProt I6X8D2)
# Sequence (I6X8D2 1451-1733): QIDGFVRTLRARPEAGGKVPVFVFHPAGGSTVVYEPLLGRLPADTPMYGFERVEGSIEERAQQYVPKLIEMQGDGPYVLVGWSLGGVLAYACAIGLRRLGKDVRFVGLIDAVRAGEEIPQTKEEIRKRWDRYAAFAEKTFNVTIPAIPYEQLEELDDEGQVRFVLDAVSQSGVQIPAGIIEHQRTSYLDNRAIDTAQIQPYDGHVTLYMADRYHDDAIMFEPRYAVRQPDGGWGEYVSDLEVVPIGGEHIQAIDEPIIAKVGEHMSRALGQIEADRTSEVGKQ
# TEST_NAME: biochemical
# Type: biochemical
# MEASUREMENT_CONTEXT: Pks13-TE, 20 μM 4-MUH; read-out: IC50
ENDPOINT_LABEL: IC50 (µM)
Answer in µM, number only, no unit symbol.

stdin: Give its IC50 value. Item: Cc1nc2c(CN3CCC(C)CC3)c(O)ccc2[nH]1 [compound 9]
stdout: 10

stdin: Give its IC50 value. Item: CCOC(=O)c1c(-c2ccc(F)cc2)oc2cc(O)cc(CCNC(CO)CO)c12 [compound 78]
stdout: 13

stdin: Give its IC50 value. Item: CNC(=O)c1c(-c2ccc(O)cc2)oc2ccc(O)c(CN3CCC(C#N)CC3)c12 [compound 124]
stdout: 0.25

stdin: Give its IC50 value. Item: CNC(=O)c1c(-c2ccccc2)oc2cc(O)cc(CN3CCCCC3)c12 [compound 40]
stdout: 0.6

stdin: Give its IC50 value. Item: Oc1ccc2[nH]c(-c3ccccc3)nc2c1CN1CCCCC1 [compound 8]
stdout: 6.8

stdin: Give its IC50 value. Item: CCOC(=O)c1c(-c2ccccc2)oc2ccc(O)c(CCCN3CC(O)C3)c12 [compound 197]
stdout: 7.5

stdin: Give its IC50 value. Item: CCOC(=O)c1c(-c2ccccc2)oc2ccc(O)c(CCCN3CCC(CO)CC3)c12 [compound 166]
stdout: 0.5

stdin: Give its IC50 value. Item: CC(C)NCCc1c(O)ccc2oc(-c3ccc(O)cc3)c(C(=O)N(C)C)c12 [compound 209]
stdout: 1.8

stdin: Give its IC50 value. Item: CNC(=O)c1c(-c2ccccc2)oc2ccc(O)c(CCCN3CCCC3)c12 [compound 105]
stdout: 5

stdin: Give its IC50 value. Item: CNC(=O)c1c(-c2ccccc2)oc2ccc(O)c(CCCN3CCC3)c12 [compound 271]
stdout: 7

stdin: Give its IC50 value. Item: CCOC(=O)c1c(-c2ccc(F)cc2)oc2cc(O)cc(CN3CCCCC3)c12 [compound 49]
stdout: 0.4

stdin: Give its IC50 value. Item: O=C(c1c(-c2ccccc2)oc2ccc(O)c(CN3CCCCC3)c12)N1CCOCC1 [compound 46]
stdout: 0.34

stdin: Give its IC50 value. Item: CCOC(=O)c1c(-c2ccccc2)oc2ccc(O)c(CCCN3CC[C@@H]3CO)c12 [compound 212]
stdout: 1.94
